Tested on: DU-145
Test: NCI tumour cell line growth inhibition, 48 h
Activity calls are given as the source filed them. No stated cut-off is given here; in the data, active = GI50 up to about 1.1 µM and inactive = higher.
A correct response names exactly one class from yes (1) for active, no (0) for inactive

Fill in: this test's call for CC(=O)CC1(O)C(=O)c2c(Br)sc(Br)c2C1=O is ___
no (0)

What was the test verdict on C=CCn1c(=O)c(C)cn(COCCO)c1=O ?
no (0)

Tell me the assay call for Cc1ccc(S(=O)(=O)Nc2ccccc2C=O)cc1 please.
no (0)

Outcome logged for COc1cc2c(cc1OC)C1c3ccccc3CCN1CCC2.[O-][Cl+3]([O-])([O-])O (stereo not given) in this assay:
no (0)

Recorded call for CN(C)CCn1c(=O)c2ccc3c4c(nn3CCN(C)C)c3cc([N+](=O)[O-])ccc3n(c1=O)c24 ?
yes (1)

For CC(C)NC(=O)OCc1c(COC(=O)NC(C)C)c(-c2cc[n+](COC(=O)C(C)C)cc2)n2c1CCC2 , which call appears in the assay record?
no (0)

Could you please tell me the result logged for COc1cc(N(CCC#N)CCC#N)ccc1C(/N=N/c1cccc(C)c1)=N\NC(=O)c1ccc(C)cc1 in this assay?
no (0)

// return assay outcome for CCOC(=O)c1c(N=P(c2ccccc2)(c2ccccc2)c2ccccc2)nnc(-c2ccccc2)c1-c1ccccc1
no (0)

// return assay outcome for CC(C)C1CC(CO)(CNc2nc(N)nc(Cl)c2C=O)C1 (stereo not given)
no (0)

Please state the recorded outcome for this molecule: CN(C)Cc1cc(/N=N/c2ccccc2Cl)ccc1O
no (0)

Record lookup: outcome of this test for O=C1NN=C(c2ccc(Cl)cc2)CC1C1C(=O)N(c2ccccc2)N=C1c1ccccc1 (stereo not given) ?
no (0)

How did this test come out for NC(=S)N/N=C1\c2ccccc2CCC1CCC1(O)CCc2ccccc2C1=O (stereo not given) ?
no (0)

What did the test return for O=[N+]([O-])c1ccc2nc3c(nc2c1)-c1c2ccccc2cc2cccc-3c12 ?
no (0)

Please state the recorded outcome for this molecule: Cc1ccsc1C(=S)Nc1ccc(Cl)c(/C=N/OC(C)C)c1
no (0)

Please indicate how the test categorized COc1cc(C(=O)/C=C/c2ccc(OCCSCCCCCCCCCCSCCOc3ccc(/C=C/C(=O)c4cc(OC)c(OC)c(OC)c4)cc3)cc2)cc(OC)c1OC .
no (0)

Test call, this molecule: CC(=O)c1sc2c(c1OC(=O)c1cccs1)c(=O)n(-c1ccccc1)c(=S)n2-c1ccccc1
no (0)

Name the outcome recorded for COc1cc2c(cc1OCCCC(=O)Nc1cc(C(=O)Nc3cc(C(=O)Nc4cc(C(=O)NCCCN(C)C)n(C)c4)n(C)c3)n(C)c1)N=C[C@@H]1CCCN1C2=O in the assay.
no (0)

Call for entry O=C(Nc1ccc2ncccc2c1)Nc1ccc2ncccc2c1 :
no (0)

Give the logged outcome of this assay for the following molecule: O=C1CCc2cc(Br)ccc2O1
no (0)

So what was the verdict on COc1cc(OC)c2c(=O)c(OC)c(-c3ccc4c(c3)OCO4)oc2c1OC in this test?
no (0)

----------
System: HOP-62
Test: NCI tumour cell line growth inhibition, 48 h
Activity calls are given as the source filed them. Cut-off read from the data, not from the text of the source: active = GI50 up to about 1.1 µM and inactive = higher.
Choose the fitting class; nothing outside YES = active, NO = inactive is accepted.

Could you please tell me the result logged for CN(C)CCNC(=O)c1ccccc1Nc1c(Cl)cccc1Cl in this assay?
NO

Which result was noted for this compound in the test: O=C(c1cc2ccccc2[nH]1)N1C2CCC1CN(CCOC(c1ccc(F)cc1)c1ccc(F)cc1)CC2 (stereo not given)
NO

Write down the call the test reported for this compound. Item: COc1cc(C2c3cc4c(cc3[C@@H](NCCN3CCOCC3)C3COC(=O)[C@H]23)OCO4)cc(OC)c1O (stereo not given in full)
YES

# lookup: test call for COc1ccc(C(=O)/C(Br)=C/C(=O)O)cc1
NO

Returns: the outcome recorded for COc1ccc(NC(=O)NS(=O)(=O)c2ccc(C)cc2)nn1 in this assay.
NO

Attribution: ChEMBL document CHEMBL1201862
